Molecular target: androgen receptor (AR-LBD) (Rattus norvegicus, UniProt P15207)
Construct: 5 μL of 2×AR-LBD/Fluoromone AL Red Complex contained in the kit; purchased Invitrogen
Sequence (P15207 651-882 limits assumed): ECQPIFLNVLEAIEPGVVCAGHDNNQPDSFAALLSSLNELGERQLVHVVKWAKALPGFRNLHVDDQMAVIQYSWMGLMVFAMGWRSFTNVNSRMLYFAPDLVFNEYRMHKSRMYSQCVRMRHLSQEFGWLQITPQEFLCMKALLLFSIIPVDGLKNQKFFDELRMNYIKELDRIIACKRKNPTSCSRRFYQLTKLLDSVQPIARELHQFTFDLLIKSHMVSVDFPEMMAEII
Experiment: Evaluation of androgen receptor affinity (PolarScreen Androgen Receptor Competitor Assay Kit, Red; fluorescence polarization)
Details: 22° C. for 5 hours, relative to binding rate of 1 μM DHT, read-out: AR affinity (pEC50) (converted)
Parameter Measured: EC50 (nM)

(A) Cc1sc(N(CCC2CCCCC2)c2ccc(C#N)cc2)nc1C(=O)NS(C)(=O)=O
(B) Cc1sc(N(Cc2ccccc2)c2ccc3nccnc3c2)nc1C(=O)NS(C)(=O)=O
// compare measured EC50 between A and B ; output the lower one To answer, give the label that identifies your chosen option.
A
(A: 50.1 nM, B: 316 nM)

(P) CCc1oc(N(Cc2cccc(Cl)c2)c2ccc(C#N)cc2)nc1C(=O)NS(C)(=O)=O
(Q) Cc1sc(N(Cc2ccc(OCc3cccnc3)cc2)c2ccc(C#N)cc2)nc1C(=O)NS(C)(=O)=O
Of P and Q , whose reported EC50 is the larger number? Write down the label attached to your selection.
Q
(Q: 100 nM, P: 39.8 nM)

====

Molecular target: androgen receptor (AR-LBD) (Rattus norvegicus)
Construct: 5 μL of 2×AR-LBD/Fluoromone AL Red Complex contained in the kit; purchased Invitrogen
Assay: Evaluation of androgen receptor affinity (PolarScreen Androgen Receptor Competitor Assay Kit, Red; fluorescence polarization)
Conditions: 22° C. for 5 hours, relative to binding rate of 1 μM DHT, read-out: AR affinity (pEC50) (converted)
Parameter Measured: EC50 (µM)

| Compound | Value Observed |
| --- | --- |
| Cc1sc(N(Cc2ccc(C(F)(F)F)cc2C(F)(F)F)c2ccc(C#N)cc2)nc1C(=O)NS(C)(=O)=O [Compound 414] | 0.501 |
| Cc1oc(N(CCc2ccccc2)c2ccc(C#N)cc2)nc1C(=O)NS(C)(=O)=O [Compound 625] | 0.251 |
| Cc1oc(N(Cc2ccc(Cl)cc2)c2ccc(C#N)cc2)nc1C(=O)NS(C)(=O)=O [Example 286] | 0.501 |
| Cc1sc(N(Cc2ccccc2)c2ccc(S(C)(=O)=O)cc2)nc1C(=O)NS(C)(=O)=O [Example 261] | 1.26 |
| Cc1oc(N(CCc2ccc(C#N)cc2)Cc2ccc(F)cc2Cl)nc1C(=O)NS(C)(=O)=O [Compound 554] | 0.0398 |
| CS(=O)(=O)NC(=O)c1nc(N(Cc2ccccc2OC(F)F)c2ccc(C#N)cc2)sc1Br [Example 254] | 0.0398 |

(a) CS(=O)(=O)NC(=O)c1nc(N(Cc2ccc(OC(F)(F)F)cc2)c2ccc(C#N)cc2)sc1Br [Example 253]
(b) Cc1sc(N(CCc2c[nH]c3ccccc23)Cc2ccccc2)nc1C(=O)NS(C)(=O)=O [Compound 320]
Min EC50? a | b Refer to your chosen entry by its label in the reply.
a
(a: 0.0316 µM, b: 0.631 µM)

(1) Cc1sc(N(Cc2ccccc2)c2ccc(S(F)(F)(F)(F)F)cc2)nc1C(=O)NS(C)(=O)=O [Example 241]
(2) Cc1sc(N(CC(=O)Nc2ccccc2)c2ccc(C#N)cc2)nc1C(=O)NS(C)(=O)=O [Compound 425]
(3) COCCCS(=O)(=O)NC(=O)c1nc(N(Cc2cnc(C(F)(F)F)c(F)c2)c2ccc(C#N)cc2)sc1C [Compound 533]
(4) Cc1sc(N(CCc2ccc(Cl)cc2)CC2CCCCC2)nc1C(=O)NS(=O)(=O)Cc1cccnc1 [Compound 699]
Give the ascending ranking of the items by reported EC50. # the answer lists labels in the order requested
4, 3, 1, 2
(4: 0.0631 µM, 3: 0.158 µM, 1: 0.316 µM, 2: 1.26 µM)

(A) Cc1sc(N(CC2=CCCCC2)c2ccc(C#N)cc2)nc1C(=O)NS(C)(=O)=O [Compound 366]
(B) Cc1sc(N(CCc2cccc(C(F)(F)F)c2)Cc2ccccc2)nc1C(=O)NS(C)(=O)=O [Compound 330]
So which one has the bigger EC50 here, A or B ? Give the label under which the chosen entry appears.
B
(B: 0.251 µM, A: 0.0398 µM)

(I) Cc1sc(N(Cc2ccc(OC(F)(F)F)c(F)c2)c2ccc(C#N)cc2)nc1C(=O)NS(C)(=O)=O [Compound 420]
(II) Cc1sc(N(Cc2ccc3nccnc3c2)c2ccc(C#N)cc2)nc1C(=O)NS(C)(=O)=O [Compound 404]
Record comparison, field EC50: mark the lower of I and II . Use the label to indicate which entry you chose.
I
(I: 0.02 µM, II: 1 µM)

(I) COc1c(F)c(CN(c2ccc(C#N)cc2)c2nc(C(=O)NS(C)(=O)=O)c(C)s2)c(F)c(F)c1C(F)(F)F [Compound 418]
(II) COCCCS(=O)(=O)NC(=O)c1nc(N(Cc2ccccc2)c2ccc(C#N)cc2)sc1C1CC1 [Compound 664]
(III) Cc1sc(N(C[C@H]2CCC[C@@H](CO)C2)c2ccc(C(F)(F)F)cc2)nc1C(=O)NS(C)(=O)=O (racemic) [Compound 348]
Put the items in sequence by EC50, from largest down. Give the labels in the order requested.
III, II, I
(III: 1.26 µM, II: 0.158 µM, I: 0.0501 µM)
